Kindly state inhibition at 30 µM for each of the entries shown.
System: intracellular ROS production in LPS-stimulated RAW 264.7 macrophages
Experiment: Intracellular ROS assay in LPS-stimulated RAW 264.7 macrophages (DCFH-DA)
Type: cell-based, murine
Settings: Mus musculus, RAW264.7; 30 µM; LPS 1 μg/mL, 6 h; mean ± SD, n=3; read-out: Intracellular ROS Inhibition Rate (%)
Experimental: Intracellular ROS assay: Intracellular ROS assay was performed according to the method reported previously. RAW 264.7, a murine macrophage cell line, was obtained from the Pharmacognosy Laboratory of Prof. Mian Zhang, China Pharmaceutical University. […] The absorbance was determined at 525 nm using Thermo Scientific Varioskan Flash. […]

compound	quantityKind	measuredValue
CC(C)c1cc2c(c(O)c1O)[C@]13CO[C@H]2C[C@H]1C(C)(C)C[C@H](O)C3	inhibition at 30 µM	51.8%

// batch mode: one inhibition at 30 µM value per listed entry
1. CC(C)c1cc(O)c2c(c1O)[C@@H]1CC3C(C)(C)CCC[C@]23C(=O)O1 (some centres unmarked)
2. CC(C)C1CC2C(CO)(CC(O)C(O)C2(C)C)c2c(O)cc(O)cc21 (centres unmarked)
3. CC(C)c1cc(C=O)c2c(c1O)OC(=O)C1C(C)(C)CCC[C@]21C=O (some centres unmarked) [Compound 4, saficinolide]
4. CC(C)c1cc2c(c(O)c1O)[C@@]13CCCC(C)(C)[C@@H]1C[C@@H]2OC3=O

1. 16%
2. 56.1%
3. 16.6%
4. 53.2%
